Test system: brains, heart, liver, muscle, and DRG of the NHPs
Experiment: Maturation of TTM-001 and TTM-002 capsids, NGS enrichment in NHP tissues
Format: in vivo
Details: NGS fold-enrichment, NHP heart, relative to AAV9 control
Excerpt: This Example describes maturation of the AAV9 capsid variants, TTM-001 (SEQ ID NO: 981 (amino acid) and 983 (DNA), comprising SEQ ID NO: 941 (encoded by SEQ ID NO: 942)) and TTM-002 (SEQ ID NO: 982 (amino acid) and 984 (DNA), comprising SEQ ID NO: […] (encoded by SEQ ID NO: 944)) in NHPs to further enhance their transduction and biodistribution in the central nervous system as well as other tissues, and evolve the AAV capsid variants to provide further cross-species compatibility. […]
Field 'label' (enum: true (1) / false (0)). Set to true (1) when Fold Enrichment relative to AAV9, Heart (NHP) is strictly under 0.04 fold; else false (0).

Please review the following examples before continuing.
residue_codes=KTFNGSGSPHSKAPNLQT assayed_target="brains, heart, liver, muscle, and DRG of the NHPs" classification="false (0)"
residue_codes=KTINGHDSPHKSRQSQHT assayed_target="brains, heart, liver, muscle, and DRG of the NHPs" classification="false (0)"
residue_codes=KELHGSGSPHSKAQNQQT assayed_target="brains, heart, liver, muscle, and DRG of the NHPs" classification="true (1)"
residue_codes=KTITGHDSPHKSGQHLQT assayed_target="brains, heart, liver, muscle, and DRG of the NHPs" classification="false (0)"
residue_codes=KTINGHGSPHSKAQNPQT assayed_target="brains, heart, liver, muscle, and DRG of the NHPs" classification="false (0)"
residue_codes=KAIIGHESPHKSGQNQQT assayed_target="brains, heart, liver, muscle, and DRG of the NHPs" classification="false (0)"
residue_codes=KTINGRGSPHKRGQNQQT assayed_target="brains, heart, liver, muscle, and DRG of the NHPs" classification="false (0)"
residue_codes=KTINGSGSPHSKAQYIHT assayed_target="brains, heart, liver, muscle, and DRG of the NHPs" classification="true (1)"
residue_codes=KTINGHDSPHKTGQNQQK assayed_target="brains, heart, liver, muscle, and DRG of the NHPs" classification="false (0)"
residue_codes=KTEKTSGSPHSKAQNQQT assayed_target="brains, heart, liver, muscle, and DRG of the NHPs" classification="false (0)"

Task: Fold Enrichment relative to AAV9, Heart (NHP) strictly < 0.04 fold for this sequence? KTERNSGSPHSKAQNQQT
Output: true (1)

Task: Does the reported Fold Enrichment relative to AAV9, Heart (NHP) of KTVNRNGSPHSKAQNQQT stay below 0.04 fold?
Output: false (0)

Task: Determine if KTVNGHDSPHKSGHTQQT shows Fold Enrichment relative to AAV9, Heart (NHP) strictly lower than 0.04 fold.
Output: false (0)
